The measurements presented in this section are drawn from patent US10882829B2.

- measured.on: TYK2 kinase (Homo sapiens (Human), UniProt P29597)
- Sequence (P29597 833-1187): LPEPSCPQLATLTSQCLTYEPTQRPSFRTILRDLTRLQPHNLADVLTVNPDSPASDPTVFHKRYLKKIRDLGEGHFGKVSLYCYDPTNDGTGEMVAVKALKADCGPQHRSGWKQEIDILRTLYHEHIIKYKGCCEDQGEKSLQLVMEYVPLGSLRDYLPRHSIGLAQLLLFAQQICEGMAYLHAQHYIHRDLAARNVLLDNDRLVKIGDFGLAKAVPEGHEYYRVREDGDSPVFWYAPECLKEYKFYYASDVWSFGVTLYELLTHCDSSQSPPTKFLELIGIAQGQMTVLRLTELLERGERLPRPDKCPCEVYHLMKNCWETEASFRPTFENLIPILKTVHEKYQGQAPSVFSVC
- assay.name: TYK2 kinase inhibition assay (33P-ATP, Reaction Biology Corp.)
- Format: biochemical
- condition.set: substrate AXLtide, 120 min at room temperature, read-out: In Vitro Enzyme IC50 (nM) TYK2
- Experimental: Compounds of the invention were assayed for their ability to inhibit TYK2 kinase and other JAK kinases. Substrates and kinases used in the assays are identified in Table 2 below.
readout.label: IC50 (nM)
Answers are plain numbers, in nM.

For orientation, consider the following solved cases.
Please state recorded IC50 (tested on TYK2 kinase (Homo sapiens (Human), UniProt P29597)) of CN1CCC(NC(=O)c2ccc(Nc3oc(-c4c(F)cccc4F)nc3C(N)=O)cc2)CC1 13.8

Queued: CN(C)S(=O)(=O)c1ccc(Nc2oc(-c3c(F)cccc3F)nc2C(N)=O)cc1 5.3

Queued: CNCCCNC(=O)c1ccc(Nc2oc(-c3c(F)cccc3F)nc2C(N)=O)cc1 15.1

Queued: NC(=O)c1nc(-c2c(F)cccc2F)oc1Nc1ccc(C(=O)NCCO)cc1 7.5

Queued: NCCCNC(=O)c1ccc(Nc2oc(-c3c(F)cccc3F)nc2C(N)=O)cc1 25

Queued: CS(=O)(=O)c1ccc(Nc2oc(-c3cc(F)ccc3F)nc2C(N)=O)cc1 183

Queued: NC(=O)c1nc(-c2c(F)cccc2F)oc1Nc1ccc(C(=O)N[C@@H]2CCNC2)cc1 23.4

Queued: CN(C)C(=O)c1ccc(Nc2oc(-c3c(F)cccc3F)nc2C(N)=O)cc1 9.2

Queued: CNS(=O)(=O)c1ccc(Nc2oc(-c3c(F)cccc3F)nc2C(N)=O)cc1 13.8

Queued: NC(=O)c1nc(-c2c(F)cccc2F)oc1Nc1ccc(C(=O)NCCCO)cc1 8.4

For each entry beneath this line, provide reported IC50.
1. NC(=O)c1nc(-c2c(F)cccc2F)oc1Nc1ccc(S(N)(=O)=O)cc1
2. CS(=O)(=O)c1ccc(Nc2oc(-c3c(Cl)cccc3Cl)nc2C(N)=O)cc1
3. NC(=O)c1nc(-c2c(F)cccc2F)oc1Nc1ccc(C(=O)NC2CCNCC2)cc1
4. CS(=O)(=O)c1ccc(Nc2oc(-c3c(F)cc(F)cc3F)nc2C(N)=O)cc1

[14.6, 2.3, 13.7, 68.3]

For each entry beneath this line, provide reported IC50.
1. CS(=O)(=O)c1ccc(Nc2oc(-c3c(F)cccc3F)nc2C(N)=O)cc1
2. NC(=O)c1nc(-c2c(F)cccc2F)oc1Nc1ccc(C(=O)N[C@@H]2CCCNC2)cc1

13.5
9.8
